Test system: B6C3F1 mice, ip Sarcoma M5076, median survival T/C
Experiment: NCI In Vivo Anticancer Drug Screen. Data for tumor model Sarcoma M5076 (intraperitoneal) in B6C3F1 mice
Conditions: endpoint: median survival time; dose: 5.0 mg/kg/injection; schedule: Q04DX004 (ip); vehicle: Klucel (hydroxypropylcellulose) (HPC); higher = longer survival
Inconclusive results and toxic doses are left out.

COMPOUND | TESTED ON | T/C
CCOC(=O)NC1CCc2cc(OC)c(OC)c(OC)c2-c2ccc(OC)c(=O)cc21 (centres undefined) | B6C3F1 mice, ip Sarcoma M5076, median survival T/C | 183 % of control
CCCCCCCC1C(=O)OC2CC3C(C)=CC(=O)C(O)C3(C)C3C4(O)OCC23C1C(C)C4O (centres undefined) | B6C3F1 mice, ip Sarcoma M5076, median survival T/C | 108 % of control
CC(=O)NC(CSC1=C2NC(=O)\C=C/C=C/C=C\C(C)C(O)CC(=O)/C(C)=C\CC(O)/C=C/C(C)C(O)C(C)C=C(C)C(=O)c3c(O)c(C)cc(c3C1=O)C2=O)C(=O)O (centres undefined) | B6C3F1 mice, ip Sarcoma M5076, median survival T/C | 101 % of control
CC1=CC(C)C(O)C(C)/C=C/C(O)C/C=C(/C)C(=O)CC(O)C(C)\C=C/C=C/C=C\C(=O)NC2=C(O)c3cc(C)c(O)c(c3C(=O)C2=O)C1=O (centres undefined) | B6C3F1 mice, ip Sarcoma M5076, median survival T/C | 102 % of control

Data origin: PubChem BioAssay AID292
